The measured values listed here are drawn from patent US20260027220A1.

Biological target: T1, human EphA2 ectodomain (human, UniProt P29317 24-537)
T1 construct: Soluble ectodomain used as the SPR analyte
T1 sequence (P29317 24-537 limits assumed): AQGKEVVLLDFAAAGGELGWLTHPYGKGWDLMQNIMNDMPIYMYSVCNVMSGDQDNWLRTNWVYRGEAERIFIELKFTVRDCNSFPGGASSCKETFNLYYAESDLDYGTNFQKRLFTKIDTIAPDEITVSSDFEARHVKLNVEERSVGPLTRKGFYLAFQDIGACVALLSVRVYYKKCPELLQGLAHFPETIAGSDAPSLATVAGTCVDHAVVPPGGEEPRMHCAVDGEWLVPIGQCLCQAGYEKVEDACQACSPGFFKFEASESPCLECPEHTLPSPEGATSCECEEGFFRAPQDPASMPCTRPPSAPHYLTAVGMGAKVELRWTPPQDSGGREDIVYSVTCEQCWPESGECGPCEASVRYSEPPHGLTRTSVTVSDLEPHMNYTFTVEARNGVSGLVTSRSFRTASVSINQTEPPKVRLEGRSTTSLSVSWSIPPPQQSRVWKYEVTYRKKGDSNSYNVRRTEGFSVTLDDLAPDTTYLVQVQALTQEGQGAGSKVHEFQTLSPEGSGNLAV
Test: SPR (Biacore 8k), Fab-capture, 37C, 1:1 model;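 also: Anti-EphA2 IgG captured via immobilized anti-Fab, soluble EphA2 ectodomain as analyte at six twofold dilutions from 50 nM, HBS-EP+ pH 7.6 running buffer, double reference subtraction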
measure: pKd
Numbers only, as −log10 of the molar value.

Recorded pKd (binder anti-EphA2 E152C S375C 1C1 (LC G77S) hIgG1 (WT Heavy Chain) (antibody, V domains shown, also called 1C1 G77S IgG; ZF-74-CQ11) VH: EVQLLESGGGLVQPGGSLRLSCAASGFTFSHYMMAWVRQAPGKGLEWVSRIGPSGGPTHYADSVKGRFTISRDNSKNTLYLQMNSLRAEDTAVYYCAGYDSGYDYVAVAGPAEYFQHWGQGTLVTVSS VL: DIQMTQSPSSLSASVGDRVTITCRASQSISTWLAWYQQKPGKAPKLLIYKASNLHTGVPSRFSGSGSGTEFSLTISSLQPDDFATYYCQQYNSYSRTFGQGTKVEIKR ): 6.73
